The values you see were collected from the nanobody polyreactivity screen of Harvey et al. (2022).

Assay Info: yeast display, Sf9 membrane polyspecificity reagent, FACS + sequencing; frameworks hold sequencing errors
Measure: polyreactivity (PSR sort gate)

[[record]]
residue_sequence = "QVQLVESGGGLVQAGGSLRLSCAASGIIFGPYAMGWYIQAPGKERELVAAITDGGITYYADSVKGRFTISRDNAKNTVYLQMNSLKPEDTAVYYCAAESGYPVYTYVSSGDYWGQGTQVTVSS"
measure = "polyreactivity (PSR sort gate)"
result = "low polyreactivity"

[[record]]
residue_sequence = "QVQLVESGGGLVQAGGSLRLSCAAYGSIFWSYAMGWYIQAPGKERELVAGITRSGGSTYYSDSVKGRFTISRDNAKNPVYLQMISLKPEDTAVYYCNKAFGGDKYSGSYEYWGQGNQVTVSS"
measure = "polyreactivity (PSR sort gate)"
result = "high polyreactivity"

[[record]]
residue_sequence = "QVQLVESGGGLVQAGGSLRLSCAASGSIFYSNAMGWYRQAPGKERELVAAIRTSAGSTYYADSVKGRFTISRDYAKNTVYLQMTSLKPEDTAVYYCAAVTTYYYYDVTDYAYEYYYWGQGTQVTVSS"
measure = "polyreactivity (PSR sort gate)"
result = "low polyreactivity"

[[record]]
residue_sequence = "QVQLVESGGGLVLAGGSLRLICAGSGRIFYTNTMGWYRQAPWKGRELVAAIRSGTRTYYADSVKGRFTISRDNAKNTFYLLMNILKPEATAVYYCAAYYSYYGGDYWGQGTQVTVSS"
measure = "polyreactivity (PSR sort gate)"
result = "low polyreactivity"

[[record]]
residue_sequence = "QVQLVESGGGLVQAGGSLRLSCAASGITFRSYVMGWYRQAPGKEMEFVAVITKSGGSTYYADSVKGRFTISRDNAMNTVYLQMNSLKPEDTAVYYCGAEYARSSRYKISSEMYYWGQGTQVTVSS"
measure = "polyreactivity (PSR sort gate)"
result = "high polyreactivity"

[[record]]
residue_sequence = "QVQLVESGGGLVQAGGSLRLSCAASGLTFRYNAMGWYRQAPGKERELVAAIRTSGGSTYYADSVKGRFTISRDNAKNTVYLQMNSLKPEDTAVYYCAARSKSYYGGYARGYWGQGTQVTVSS"
measure = "polyreactivity (PSR sort gate)"
result = "high polyreactivity"

[[record]]
residue_sequence = "QVQLVESGGGLFQAGVSLTLSFAASGSIFDINAMGWYRQEPWKETDLVAAIRSGDRTHYADSVKGRFTISRDNAMNTVYLQMNSLIPEDTAVYYCAADRFIYLNRELDYWGQGTQVTVSS"
measure = "polyreactivity (PSR sort gate)"
result = "low polyreactivity"

[[record]]
residue_sequence = "QVQLVESGGGLVQAGGSLRLSCAASGSIFNYYAMGRYRQAPGKERELVAAIETTGGSTYYADSVKGRFTISRDNAKNTVYLQMNSLKPEDTAVYYCAATWAKPWYYEYDYWGQGTQVTVSS"
measure = "polyreactivity (PSR sort gate)"
result = "low polyreactivity"

[[record]]
residue_sequence = "QVQLEESGGGLVQAGGSLRLSCAASGRTSLAYAMGWYRQATGKEMELVAGITSGGNTNYADSVKGRFTISCDNAKNTVYLQMNSLKPEDTAVYYCNKKKRWQWYSDSVLDYLGFYSWGQGTQVTVSS"
measure = "polyreactivity (PSR sort gate)"
result = "low polyreactivity"

[[record]]
residue_sequence = "QVQLVESGGGLVQAGGSLRLSCAASGRTFPSYAMGWYRQSPGKERELVAAITVSGGNTYYADSVKGRFTISRDNAKNTVYLQMNSLKPEDTAVYYCNTASYVSWYVHYYYWGQGTQVTVSS"
measure = "polyreactivity (PSR sort gate)"
result = "low polyreactivity"

[[record]]
residue_sequence = "QVQLVESGGGLVQAGGSLRLICAASGSTFTGYAMGWYRQAPGKERELVAAINWRGGTTYYADSVKGRFTISRDNAKNTVYLQMNSLKPEDTAVYYCNKYRISGLSKFYYWGQGTQVTVSS"
measure = "polyreactivity (PSR sort gate)"
result = "high polyreactivity"

